Reported Ki is given for each of the following binders.
- TARGET DESC: T1, human GIP receptor (human, UniProt P48546 22-466)
- T1 construct: whole, on cells; also called hGIPR; human glucose-dependent insulinotropic polypeptide receptor
- T1 sequence (looked up): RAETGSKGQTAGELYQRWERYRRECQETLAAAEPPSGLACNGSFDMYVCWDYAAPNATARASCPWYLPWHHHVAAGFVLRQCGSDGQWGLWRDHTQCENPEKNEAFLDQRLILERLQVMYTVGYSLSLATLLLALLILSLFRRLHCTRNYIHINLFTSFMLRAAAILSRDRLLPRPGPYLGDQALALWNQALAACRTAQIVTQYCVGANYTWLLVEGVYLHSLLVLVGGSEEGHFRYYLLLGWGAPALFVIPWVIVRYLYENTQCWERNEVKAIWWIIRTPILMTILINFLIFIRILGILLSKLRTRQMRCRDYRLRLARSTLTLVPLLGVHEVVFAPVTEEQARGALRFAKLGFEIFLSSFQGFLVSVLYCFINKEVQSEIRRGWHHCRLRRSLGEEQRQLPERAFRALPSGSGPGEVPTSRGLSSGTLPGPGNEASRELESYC
- PROCEDURE TEXT: SPA competition vs [125I]-GIP, hGIPR membranes
Quick note: give the figure in nM, leave out the unit.

Guide cases for Ki, answers given:
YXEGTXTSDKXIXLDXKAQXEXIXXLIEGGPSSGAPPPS (Aib2, αMeF(2F)6, K10(Z1), Aib11, αMeL13, Orn16, K17(Z1), Aib20, αMeF22, D-Glu24, αMeY25, C-term NH2; Z1=AEEA3-(γ-Glu)-CO-(CH2)10-CH3) = 0.0372
YXEGTXTSDXSIXLDXQAQXXFIKXLIKGGPSSGAPPPS (Aib2, αMeF(2F)6, hY10 (so in the source), αMeL13, Orn16, Aib20, Orn21, K24(Z1), αMeY25, K28(Z1), C-term NH2; Z1=AEEA2-(γ-Glu)-CO-(CH2)12-CO2H) = 0.0301
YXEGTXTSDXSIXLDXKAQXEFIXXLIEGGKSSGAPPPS (Aib2, αMeF(2F)6, αMeV10, αMeL13, Orn16, K17(Z1), Aib20, D-Glu24, αMeY25, K31(Z1), C-term NH2; Z1=AEEA2-(γ-Glu)-CO-(CH2)12-CO2H) = 0.0832

Given the binder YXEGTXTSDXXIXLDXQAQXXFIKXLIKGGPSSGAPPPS (Aib2, αMeF(2F)6, 4Pal10, Aib11, αMeL13, Orn16, Aib20, Orn21, K24(Z1), αMeY25, K28(Z1), C-term NH2; Z1=PEG6-(γ-Glu)-CO-(CH2)12-CO2H) , what is its reported Ki?
0.0199

Given the binder YXEGTXTSDXSIXLDXKAQXXFIXXLIKGGPSSGAPPPS (Aib2, αMeF(2F)6, 4Pal10, αMeL13, Orn16, K17(Z1), Aib20, Orn21, D-Glu24, αMeY25, K28(Z1), C-term NH2; Z1=AEEA2-(γ-Glu)-CO-(CH2)10-CH3) , what is its reported Ki?
0.0215

Given the binder YXEGTXTSDXXIXLDXQAQXKFIXXLIEGGPSSGAPPPSK (Aib2, αMeF(2F)6, 4Pal10, Aib11, αMeL13, Orn16, Aib20, K21(Z1), D-Glu24, αMeY25, K40(Z1), C-term NH2; Z1=AEEA2-(γ-Glu)-CO-(CH2)12-CO2H) , what is its reported Ki?
0.0912

Given the binder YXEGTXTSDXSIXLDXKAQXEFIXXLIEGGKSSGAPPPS (Aib2, αMeF(2F)6, hTyr10, αMeL13, Orn16, K17(Z1), Aib20, D-Glu24, αMeY25, K31(Z1), C-term NH2; Z1=AEEA2-(γ-Glu)-CO-(CH2)12-CO2H) , what is its reported Ki?
0.171

Given the binder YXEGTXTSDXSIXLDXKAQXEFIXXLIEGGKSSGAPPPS (Aib2, αMeF6, 4Pal10, αMeL13, Orn16, K17(Z1), Aib20, D-Glu24, αMeY25, K31(Z1), C-term NH2; Z1=AEEA2-(γ-Glu)-CO-(CH2)12-CO2H) , what is its reported Ki?
0.0595

Given the binder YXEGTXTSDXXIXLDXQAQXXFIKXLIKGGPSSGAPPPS (Aib2, αMeF(2F)6, 4Pal10, Aib11, αMeL13, Orn16, Aib20, Orn21, K24(Z1), αMeY25, K28(Z1), C-term NH2; Z1=AEEA3-(γ-Glu)-CO-(CH2)12-CO2H) , what is its reported Ki?
0.0351

Given the binder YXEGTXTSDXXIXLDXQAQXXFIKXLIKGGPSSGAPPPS (Aib2, αMeF(2F)6, 4Pal10, Aib11, αMeL13, Orn16, Aib20, Orn21, K24(Z1), αMeY25, K28(Z1), C-term NH2; Z1=(γ-Glu)-AEEA2-(γ-Glu)-CO-(CH2)12-CO2H) , what is its reported Ki?
0.0277

Given the binder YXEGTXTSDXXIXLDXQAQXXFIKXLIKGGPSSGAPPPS (Aib2, αMeF(2F)6, 4Pal10, Aib11, αMeL13, Orn16, Aib20, Orn21, K24(Z1), αMeY25, K28(Z1), C-term NH2; Z1=Ahx-AEEA-(γ-Glu)-(10-(4-carboxyphenoxy)decanoyl)) , what is its reported Ki?
0.0143
